# maps each entry to its IC50
- TARGET OR TEST SYSTEM: purified Na^+, K^+ -ATPase (Canis lupus familiaris)
- Construct: from tissue
- PROTOCOL DETAILS: inhibition of the activity of the purified Na^+, K^+ -ATPase (hydrolysis of ^32 P-ATP)
- Assay type: biochemical
- MEASUREMENT PARAMETERS: hydrolysis of ^32 P-ATP, purified Na^+, K^+ -ATPase; read-out: Inhibitory Activity (-log IC50) (converted)
REPORTED ENDPOINT: IC50 (µM)

{"MOLECULAR STRING": "CN(C)CCON(C)C[C@H]1CC[C@]2(O)[C@@H]3CC[C@@H]4C[C@@H](O)CC[C@]4(C)[C@H]3CC[C@]12C", "MEASURED": 100}
{"MOLECULAR STRING": "CN(C)CCONC[C@H]1CC[C@]2(O)[C@@H]3CC[C@@H]4C[C@@H](OCCN)CC[C@]4(C)[C@H]3CC[C@]12C", "MEASURED": 39.8}
{"MOLECULAR STRING": "CN(C)CCONC[C@H]1CC[C@]2(O)[C@@H]3CC[C@@H]4C[C@@H](O)CC[C@]4(C)[C@H]3CC[C@]12C", "MEASURED": 50.1}

---

- TARGET OR TEST SYSTEM: Na^+, K^+ -ATPase receptor
- PROTOCOL DETAILS: displacement of the specific ^3 H-ouabain binding from the Na^+, K^+ -ATPase receptor
- MEASUREMENT PARAMETERS: ^3 H-ouabain displacement, purified Na^+
REPORTED ENDPOINT: Binding ^3 H-Ouab. Displacement (-log IC50)

{"COMPOUND": "C[C@]12CC[C@H](O)C[C@H]1CC[C@@H]1[C@@H]2CC[C@]2(C)[C@@H](CNOCCCCN)CC[C@]12O [Comp. I-al]", "MEASURED": 6.2}
{"COMPOUND": "C[C@]12CC[C@H](O)C[C@H]1CC[C@@H]1[C@@H]2CC[C@]2(C)[C@@H](CNNC3=NCCN3)CC[C@]12O [Comp. I-ab]", "MEASURED": 6.6}
{"COMPOUND": "CN(C)CCONC[C@H]1CC[C@]2(O)[C@@H]3CC[C@@H]4C[C@@H](OCCN5CCCC5)CC[C@]4(C)[C@H]3CC[C@]12C [Comp. I-bd]", "MEASURED": 6.2}
{"COMPOUND": "CONC[C@H]1CC[C@]2(O)[C@@H]3CC[C@@H]4C[C@@H](O)CC[C@]4(C)[C@H]3CC[C@]12C [Comp. I-ai]", "MEASURED": 5.1}
{"COMPOUND": "CN(C)CCON(C)C[C@H]1CC[C@]2(O)[C@@H]3CC[C@@H]4C[C@@H](O)CC[C@]4(C)[C@H]3CC[C@]12C [Comp. I-ap]", "MEASURED": 5.0}
{"COMPOUND": "CC(NNC(=N)N)[C@H]1CC[C@]2(O)[C@@H]3CC[C@@H]4C[C@@H](O)CC[C@]4(C)[C@H]3CC[C@]12C (some centres unmarked) [Comp. I-ag]", "MEASURED": 6.5}
{"COMPOUND": "CN(C)CCONCC[C@H]1CC[C@]2(O)[C@@H]3CC[C@@H]4C[C@@H](O)CC[C@]4(C)[C@H]3CC[C@]12C [Comp. I-ax]", "MEASURED": 5.7}
{"COMPOUND": "CN(C)CCONC[C@H]1CC[C@]2(O)[C@@H]3CC[C@@H]4C[C@@H](OCCCN5CCCC5)CC[C@]4(C)[C@H]3CC[C@]12C [Comp. I-be]", "MEASURED": 6.0}
{"COMPOUND": "CC(NOCCN(C)C)[C@H]1CC[C@]2(O)[C@@H]3CC[C@@H]4C[C@@H](O)CC[C@]4(C)[C@H]3CC[C@]12C (some centres unmarked) [Comp. I-ar]", "MEASURED": 5.7}
{"COMPOUND": "CN1CCN=C1NNC[C@H]1CC[C@]2(O)[C@@H]3CC[C@@H]4C[C@@H](O)CC[C@]4(C)[C@H]3CC[C@]12C [Comp. I-ac]", "MEASURED": 6.0}
{"COMPOUND": "C[C@]12CC[C@H](O)C[C@H]1CC[C@@H]1[C@@H]2CC[C@]2(C)[C@@H](CNOCCCN)CC[C@]12O [Comp. I-ak]", "MEASURED": 6.9}
{"COMPOUND": "CN(C)CCONCC=C[C@H]1CC[C@]2(O)[C@@H]3CC[C@@H]4C[C@@H](O)CC[C@]4(C)[C@H]3CC[C@]12C [Comp. I-au]", "MEASURED": 5.9}
{"COMPOUND": "CN(C)CCONC[C@H]1CC[C@]2(O)[C@@H]3CC[C@@H]4C[C@@H](O)CC[C@]4(C)[C@H]3CC[C@]12C [Comp. I-am]", "MEASURED": 6.1}
{"COMPOUND": "CC(=C[C@H]1CC[C@]2(O)[C@@H]3CC[C@@H]4C[C@@H](O)CC[C@]4(C)[C@H]3CC[C@]12C)CNOCCN(C)C [Comp. I-av]", "MEASURED": 5.7}
